Attribution: patent US20250019412A1

TARGET: recombinant human BAFF (human, UniProt Q9Y275 134-285)
EXPERIMENT SUMMARY: cell-based or functional assay
binders and their reported BAFF IC50 (pM)
Numeric answer only, unit pM assumed.

Entry under test: TACI 13-118, with K77E/F78Y/Y102D, Fc fusion (Fc fusion) SRVDQEERFPQGLWTGVAMRSCPEEQYWDPLLGTCMSCKTICNHQSQRTCAAFCRSLSCRKEQGEYYDHLLRDCISCASICGQHPKQCADFCENKLRSPVNLPPELEPKSSDKTHTCPPCPAPEAEGAPSVFLFPPKPKDTLMISRTPEVTCVVVDVSHEDPEVKFNWYVDGVEVHNAKTKPREEQYNSTYRVVSVLTVLHQDWLNGKEYKCKVSNKALPAPIEKTISKAKGQPREPQVYTLPPSRDELTKNQVSLTCLVKGFYPSDIAVEWESNGQPENNYKTTPPVLDSDGSFFLYSKLTVDKSRWQQGNVFSCSVMHEALHNHYTQKSLSLSPG . Its BAFF IC50 (pM) was 1990

Entry under test: belimumab (antibody, V domains shown) VH: QVQLQQSGAEVKKPGSSVRVSCKASGGTFNNNAINWVRQAPGQGLEWMGGIIPMFGTAKYSQNFQGRVAITADESTGTASMELSSLRSEDTAVYYCARSRDLLLFPHHALSPWGRGTMVTVSS VL: SSELTQDPAVSVALGQTVRVTCQGDSLRSYYASWYQQKPGQAPVLVIYGKNNRPSGIPDRFSGSSSGNTASLTITGAQAEDEADYYCSSRDSSGNHWVFGGGTELTVLG . Its BAFF IC50 (pM) was 2200

Entry under test: 13 TACI CRD2-Fc (Fc fusion) SLSCRKEQGKFYDHLLRDCISCASICGQHPKQCAYFCENKLRSGSGGGGSEPKSSDKTHTCPPCPAPEAEGAPSVFLFPPKPKDTLMISRTPEVTCVVVDVSHEDPEVKFNWYVDGVEVHNAKTKPREEQYNSTYRVVSVLTVLHQDWLNGKEYKCKVSNKALPAPIEKTISKAKGQPREPQVYTLPPSRDELTKNQVSLTCLVKGFYPSDIAVEWESNGQPENNYKTTPPVLDSDGSFFLYSKLTVDKSRWQQGNVFSCSVMHEALHNHYTQKSLSLSPG . Its BAFF IC50 (pM) was 1850
